Species on record: Rattus norvegicus
Test: Inhibition of rat recombinant geranylgeranyltransferase type I expressed in Escherichia coli assessed as residual enzyme activity for geranylgeranylation of K-Ras4B at 50 uM incubated for 30 mins in presence of [3H]GGPP by scintillation counting assay relative to control
quantity measured: Activity (%)

# example entries with known answers
Which measured Activity value corresponds to CCCS[C@@H]1C[C@@H](c2ccc(OC)c(OC)c2)N(S(=O)(=O)c2ccc(C)cc2)C[C@H]1C(=O)O ?
91.4

Which measured Activity value corresponds to CCCCCCS[C@@H]1C[C@@H](c2ccc(OC)cc2)N(S(=O)(=O)c2ccc(Cl)cc2)C[C@H]1C(=O)O ?
68.3

Which measured Activity value corresponds to Cc1ccc([C@@H]2C[C@@H](SCC(C)C)[C@H](C(=O)O)CN2S(C)(=O)=O)cc1 ?
73.1

[a] COc1ccc([C@@H]2C[C@@H](SCc3ccc(Cl)cc3)[C@H](C(=O)O)CN2S(=O)(=O)c2ccc(C)cc2)cc1OC
[b] Cc1ccccc1S(=O)(=O)N1C[C@@H](C(=O)O)[C@H](SCc2ccc(C(C)(C)C)cc2)C[C@H]1c1ccc(Cl)cc1
Pick one: a or b . Which one has the lower reported Activity? Returns: label corresponding to the selected item.
b
(b: 43.1%, a: 69.1%)

[1] CC(=O)C1=CC[C@@H](c2ccc(Cl)cc2)N(S(=O)(=O)c2ccccc2C)C1
[2] COc1ccc([C@@H]2CC=C(C(=O)O)[C@H](c3cccc(Br)c3)N2S(=O)(=O)c2ccccc2)cc1
Please state the entry with greater Activity among 1 and 2 . Returns: label corresponding to the selected item.
1

[I] Cc1ccc(S(=O)(=O)N2[C@@H](c3ccc(F)cc3)C(C(=O)O)=CC[C@H]2c2cccc(Cl)c2)cc1
[II] COc1ccc([C@@H]2CC=C(C(=O)O)[C@H](c3cccc(Cl)c3)N2S(=O)(=O)c2ccc(C)cc2)cc1
Pick one: I or II . Which one has the lower reported Activity? Returns: label corresponding to the selected item.
I

[a] Cc1ccc([C@@H]2C[C@@H](Sc3ccc(Cl)cc3)[C@H](C(=O)O)CN2S(=O)(=O)c2ccc(C)cc2)cc1
[b] Cc1ccc([C@@H]2CC=C(C(=O)O)[C@H](c3ccc(Br)cc3)N2S(C)(=O)=O)cc1
Please state the entry with greater Activity among a and b . Returns: label corresponding to the selected item.
b

[P] COc1cc([C@@H]2C[C@@H](SCc3ccccc3)[C@H](C(=O)O)CN2S(=O)(=O)c2ccc(C)cc2)cc(OC)c1OC
[Q] CC(C)(C)c1ccc([C@H]2C(C(=O)O)=CC[C@@H](c3ccc(Cl)cc3)N2S(=O)(=O)c2ccc(Cl)cc2)cc1
Please state the entry with greater Activity among P and Q . Returns: label corresponding to the selected item.
Q

[1] Cc1ccc([C@@H]2CC=C(C(=O)O)[C@H](c3cccc(F)c3)N2S(=O)(=O)c2ccc(Cl)cc2)cc1
[2] Cc1ccc([C@H]2C(C(=O)O)=CC[C@@H](c3cccc(C)c3)N2S(=O)(=O)c2ccc(C)cc2)cc1
Pick one: 1 or 2 . Which one has the lower reported Activity? Returns: label corresponding to the selected item.
1

[a] Cc1ccc(S(=O)(=O)N2[C@@H](c3ccc(F)cc3)C(C(=O)O)=CC[C@H]2c2ccc(F)cc2)cc1
[b] CCOc1ccc([C@@H]2C[C@@H](SCc3ccc(C(C)(C)C)cc3)[C@H](C(=O)O)CN2S(=O)(=O)c2ccc(C)cc2)cc1
Please state the entry with greater Activity among a and b . Returns: label corresponding to the selected item.
a

----------
Species on record: Rattus norvegicus
Assay: Inhibition of rat recombinant geranylgeranyltransferase type I expressed in Escherichia coli assessed as residual enzyme activity for geranylgeranylation of K-Ras4B at 50 uM incubated for 30 mins in presence of [3H]GGPP by scintillation counting assay relative to control
quantity measured: Activity (%)

[1] Cc1ccc(S(=O)(=O)N2[C@@H](c3cccc(F)c3)C(C(=O)O)=CC[C@H]2c2ccc(Cl)c(Cl)c2)cc1
[2] Cc1ccc([C@@H]2CC=C(C(=O)O)[C@H](c3cccc(Br)c3)N2S(C)(=O)=O)cc1
[3] CC(C)(C)OC(=O)CCS[C@H]1[C@@H](C(=O)O)[C@H](c2ccc(Cl)cc2)N(S(=O)(=O)c2ccccc2)[C@@H]1CC1CCCC1
Rank the molecules listed above in increasing order of Activity. Write the labels, ordered according to the request.
3, 1, 2
(3: 30.4%, 1: 45.1%, 2: 66.6%)

[a] CCCCCS[C@@H]1C[C@@H](c2ccc(CC)cc2)N(S(=O)(=O)c2ccc(C)cc2)C[C@H]1C(=O)O
[b] CCCCCC[C@@H]1[C@@H](SC2CCCC2)[C@@H](C(=O)O)[C@H](c2ccc(C#N)cc2)N1S(=O)(=O)c1ccc(C)cc1
Please state the entry with greater Activity among a and b . Returns: label corresponding to the selected item.
a

----------
Organism: Rattus norvegicus
Test: Inhibition of rat recombinant geranylgeranyltransferase type I expressed in Escherichia coli assessed as residual enzyme activity for geranylgeranylation of RhoA at 50 uM incubated for 30 mins in presence of [3H]GGPP by scintillation counting assay relative to control
quantity measured: Activity (%)

# example entries with known answers
Which measured Activity value corresponds to C=CCS[C@H]1[C@@H](C(=O)O)[C@H](c2ccc(Cl)cc2)N(S(=O)(=O)c2ccccc2C)[C@@H]1CCCC ?
8.4

Which measured Activity value corresponds to Cc1ccc(S(=O)(=O)N2[C@@H](c3cccc(Cl)c3)C(C(=O)O)=CC[C@H]2c2cccc(Br)c2)cc1 ?
7.9

Which measured Activity value corresponds to C=CCS[C@H]1[C@@H](C(=O)O)[C@H](c2ccc(Cl)cc2)N(S(=O)(=O)c2ccc(C)cc2)[C@@H]1CC1CCCC1 ?
7.7

Which measured Activity value corresponds to Cc1ccc([C@@H]2CC=C(C(=O)O)[C@H](c3cccc(Br)c3)N2S(=O)(=O)c2ccc(Cl)cc2)cc1 ?
7.4

Which measured Activity value corresponds to Cc1ccc([C@@H]2C[C@@H](SCc3ccccc3)[C@H](C(=O)O)CN2S(=O)(=O)c2ccccc2C)cc1 ?
17.5

[I] CCOc1ccc([C@@H]2C[C@@H](SCc3ccc(Cl)cc3)[C@H](C(=O)O)CN2S(=O)(=O)c2ccc(C)cc2)cc1
[II] Cc1ccccc1S(=O)(=O)N1C[C@@H](C(=O)O)[C@H](SCc2ccc(Cl)cc2)C[C@H]1c1ccc(Cl)cc1
Pick one: I or II . Which one has the lower reported Activity? Returns: label corresponding to the selected item.
I
(I: 2.6%, II: 13%)

----------
System: K562
Assay: Antiproliferative activity against human K562 cells assessed as inhibition of cell proliferation incubated for 72 hrs by CCK8 assay
Assay type: functional, cell-based
Conditions: K562, 72 h
pIC50: −log10 of the molar value.
quantity measured: pIC50

Which measured pIC50 value corresponds to COC(=O)[C@H](Cc1ccccc1)NC(=O)C1=C[C@@H](C(C)(C)C)N(S(=O)(=O)c2ccccc2C)[C@H]1c1ccc(Cl)cc1 ?
4.98

Which measured pIC50 value corresponds to Cc1ccccc1S(=O)(=O)N1[C@@H](c2ccc(Cl)cc2)C(C(N)=O)=C[C@H]1C(C)(C)C ?
4.96

----------
Species: Rattus norvegicus
Experiment: Inhibition of rat recombinant geranylgeranyltransferase type I expressed in Escherichia coli assessed as residual enzyme activity for geranylgeranylation of K-Ras4B at 50 uM incubated for 30 mins in presence of [3H]GGPP by scintillation counting assay relative to control
quantity measured: Activity (%)

# example entries with known answers
Which measured Activity value corresponds to CCOc1ccc([C@@H]2C[C@@H](SCCC(C)C)[C@H](C(=O)O)CN2S(=O)(=O)c2ccc(C)cc2)cc1 ?
95.9

Which measured Activity value corresponds to CC(=O)C1=CC[C@@H](c2ccc(C)cc2)N(S(=O)(=O)c2ccc(Cl)cc2)C1 ?
112

Which measured Activity value corresponds to C=CCS[C@@H]1C[C@@H](c2cc(OC)c(OC)c(OC)c2)N(S(=O)(=O)c2ccc(C)cc2)C[C@H]1C(=O)O ?
109

Which measured Activity value corresponds to C=CCS[C@@H]1C[C@@H](c2ccccc2)N(S(=O)(=O)c2ccc(C)cc2)C[C@H]1C(=O)O ?
98.9

Which measured Activity value corresponds to Cc1ccc(S(=O)(=O)N2[C@@H](c3ccc(C(C)(C)C)cc3)C(C(=O)O)=CC[C@H]2c2ccc(Cl)c(Cl)c2)cc1 ?
74.3

[A] Cc1ccc([C@@H]2C[C@@H](SC3CCCC3)[C@H](C(=O)O)CN2S(=O)(=O)c2ccc(Cl)cc2)cc1
[B] Cc1ccc(S(=O)(=O)N2[C@@H](c3ccc(F)cc3)C(C(=O)O)=CC[C@H]2c2ccc(C#N)cc2)cc1
Pick one: A or B . Which one has the lower reported Activity? Returns: label corresponding to the selected item.
B
(B: 65.1%, A: 93.2%)

----------
Organism: Rattus norvegicus
Assay: Inhibition of rat recombinant geranylgeranyltransferase type I expressed in Escherichia coli assessed as residual enzyme activity for geranylgeranylation of K-Ras4B at 50 uM incubated for 30 mins in presence of [3H]GGPP by scintillation counting assay relative to control
quantity measured: Activity (%)

Which measured Activity value corresponds to Cc1ccc(S(=O)(=O)N2[C@@H](c3ccc(Cl)cc3)C(C(=O)O)=CC[C@H]2c2ccccc2F)cc1 ?
58.2

Which measured Activity value corresponds to CCCCCS[C@@H]1C[C@@H](c2cccc(OC)c2)N(S(=O)(=O)c2ccc(C)cc2)C[C@H]1C(=O)O ?
105

Which measured Activity value corresponds to Cc1ccc(S(=O)(=O)N2C[C@@H](C(=O)O)[C@H](SC3CCCC3)C[C@H]2c2ccc3c(c2)OCO3)cc1 ?
98.1

Which measured Activity value corresponds to Cc1ccc(S(=O)(=O)N2[C@@H](c3cccc(Cl)c3)C(C(=O)O)=CC[C@H]2c2cccs2)cc1 ?
79.5

[A] C=CCS[C@H]1[C@@H](C(=O)O)[C@H](c2ccc(Cl)c(Cl)c2)N(S(=O)(=O)c2ccc(C)cc2)[C@@H]1CCCC
[B] Cc1ccc(S(=O)(=O)N2C[C@@H](C(=O)O)[C@H](SCCC(C)C)C[C@H]2c2ccccc2)cc1
[C] Cc1ccc(S(=O)(=O)N2[C@@H](c3ccc(F)cc3)C(C(=O)O)=CC[C@H]2c2cccc(Br)c2)cc1
Put the items in order so that reported Activity rises from first to last. Write the labels, ordered according to the request.
A, C, B
